Data provenance: patent US4389412A

# System: green rice leafhoppers (Nephotettix cincticeps Uhler)
# ASSAY_NOTES: Utility Example-4: 0.2% dust on rice seedlings, green rice leafhoppers
# Type: in vivo
# RECORDED_CONDITIONS: 5 kg per 10 ares, 24 hours, resistant to organophosphorus and carbamate pesticides

{"columns": ["COMPOUND", "SYSTEM_UNDER_TEST", "mortality"],
 "data": [
  ["C#CC(OC(=O)C1C(C=C(Cl)Cl)C1(C)C)c1cccc(Oc2ccc(Cl)cc2)c1 (stereo not drawn) [Compound (2) cis-/trans- = 50:50]", "green rice leafhoppers (Nephotettix cincticeps Uhler)", "not less than 90%"],
  ["CC1(C)[C@@H](C=C(Cl)Cl)[C@@H]1C(=O)OCc1cccc(Oc2ccc(Cl)cc2)c1 (relative stereo) [Compound (1) trans-]", "green rice leafhoppers (Nephotettix cincticeps Uhler)", "not less than 90%"],
  ["CC1(C)C(C=C(Cl)Cl)C1C(=O)OCc1cccc(Oc2ccc(Cl)cc2)c1 (stereo not drawn) [Compound (1) cis-/trans- = 50:50]", "green rice leafhoppers (Nephotettix cincticeps Uhler)", "not less than 90%"],
  ["C#CC(OC(=O)[C@@H]1[C@H](C=C(Cl)Cl)C1(C)C)c1cccc(Oc2ccc(Cl)cc2)c1 (relative stereo) [Compound (2) cis-]", "green rice leafhoppers (Nephotettix cincticeps Uhler)", "not less than 90%"],
  ["C#CC(OC(=O)[C@@H]1[C@@H](C=C(Cl)Cl)C1(C)C)c1cccc(Oc2ccc(Cl)cc2)c1 (relative stereo) [Compound (2) trans-]", "green rice leafhoppers (Nephotettix cincticeps Uhler)", "not less than 90%"],
  ["CC1(C)[C@H](C=C(Cl)Cl)[C@@H]1C(=O)OCc1cccc(Oc2ccc(Cl)cc2)c1 (relative stereo) [Compound (1) cis-]", "green rice leafhoppers (Nephotettix cincticeps Uhler)", "not less than 90%"]
]}

====

# Test system: brown planthoppers (Nilaparvata lugens Stal)
# ASSAY_NOTES: Utility Example-1: LC50 on adult brown planthoppers on dipped rice plants
# Type: in vivo
# RECORDED_CONDITIONS: Nilaparvata lugens, 24 h, 25° C., read-out: Pesticidal activity LC50
# Description: A 1% emulsifiable concentrate of each test compound as prepared by the procedure described in Formulation Example 2 was diluted with water to prepare a test solution of predetermined concentration. Rice plants, 4 weeks after sowing (cultivated in a pot 6 cm in diameter, 7 seedlings) were dipped in the above solution and after allowing them to dry in the air, the pot was covered with a wire-mesh cage. […]
We label by threshold. Values of LC50 strictly beneath 200 µg/mL are true. Values of 200 µg/mL and up are false.

{"columns": ["COMPOUND", "LABEL"],
 "data": [
  ["CC1(C)C(C=C(Cl)Cl)C1C(=O)OC(C#N)c1cccc(Oc2ccccc2)c1 (stereo not drawn)", "false"],
  ["C#CC(OC(=O)[C@@H]1[C@@H](C=C(Cl)Cl)C1(C)C)c1cccc(Oc2ccc(Cl)cc2)c1 (relative stereo) [Compound (2) trans-]", "true"],
  ["CC(C)C(C(=O)OC(C#N)c1cccc(Oc2ccccc2)c1)c1ccc(Cl)cc1 (stereo not drawn) [Compound (E), Fenvalerate]", "false"],
  ["CC1(C)[C@@H](C=C(Cl)Cl)[C@@H]1C(=O)OCc1cccc(Oc2ccc(Cl)cc2)c1 (relative stereo) [Compound (1) trans-]", "false"],
  ["CC1(C)C(C=C(Cl)Cl)C1C(=O)OC(C#N)c1cccc(Oc2ccc(Cl)cc2)c1 (stereo not drawn) [Compound (G) cis-/trans- = 50:50]", "false"]
]}
